Collected fraction ligated values appear next to each entry.
B1: F1*; the commonest letter at each place (parent)
chain: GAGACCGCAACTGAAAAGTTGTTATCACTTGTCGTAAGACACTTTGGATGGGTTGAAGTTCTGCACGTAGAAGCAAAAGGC

Variants of: B1
Assay: fraction ligated after 30 min (ligated reads / total reads); higher = more ligase activity
Conditions: with F1*sub RNA substrate (template-directed ligation), 42 °C
Form field (numeric): enter value without unit.

Examples from the recorded data:
variantAnnotation | fraction ligated
G34C G55A | 0.838
G34C T35G | 0.829

Please look up its fraction ligated: T35C G46A
0.829

Look up fraction ligated: G34C T44G
0.84

Look at this variant and give its reported fraction ligated. A27T T29A
0.803

So what's the measured fraction ligated for this one? T23C T49A
0.792

Looking for the measured fraction ligated of A27C G38C , can you help?
0.792

Can you look up the measured fraction ligated of G38C A57C for me?
0.824

State the recorded fraction ligated for this entry: T25C A37T
0.784

Data request, read-out fraction ligated, for T30A A48G
0.806

Which fraction ligated reading was recorded for the variant T23G T32A ?
0.858

Value lookup for fraction ligated; key = A56G A57G
0.807

Quick one: fraction ligated for T32A C40A ?
0.834

Fill blank: measured fraction ligated of the variant T29C A56T is ____.
0.795

Fill in: fraction ligated of C26A C33T is ___
0.829

Quick one: fraction ligated of T45C G50A ?
0.0234

Consider the variant shown here: A27C G31C What is its recorded fraction ligated?
0.835

Would you kindly share the measured fraction ligated for T32A A41T ?
0.825

Would you kindly share the measured fraction ligated for T45G G55T ?
0.0383

Field request: fraction ligated | item: G50A
0.589

Quick one: fraction ligated for T29C G46C ?
0.775

Recorded fraction ligated of A37G G55C , please.
0.833
